# Procedure text: Inhibition of HCV NS3 helicase activity by fluorimetric assay
# Parameters: species or system Hepacivirus hominis
Recorded metric: IC50

Past entries and their recorded results:
Cc1ccc(NC(=O)c2cccc3c(=O)c4ccccc4[nH]c23)cc1    > 100 µM
Cc1ccccc1NC(=O)c1cccc2c(=O)c3ccccc3[nH]c12    > 100 µM
O=C(NCc1ccccn1)c1cccc2c(=O)c3ccccc3[nH]c12    > 100 µM
O=C(c1cccc2c(=O)c3ccccc3[nH]c12)N1CCOCC1    > 100 µM
O=C(c1cccc2c(=O)c3ccccc3[nH]c12)N1CCCCC1    > 100 µM

Give its IC50 value. Item: Cc1cccc(NC(=O)c2cccc3c(=O)c4ccccc4[nH]c23)c1
> 100 µM

Give its IC50 value. Item: O=C(Nc1ccncc1)c1cccc2c(=O)c3ccccc3[nH]c12
8.9 µM

Give its IC50 value. Item: Cc1cccnc1NC(=O)c1cccc2c(=O)c3ccccc3[nH]c12
20.2 µM

Give its IC50 value. Item: Cc1ccnc(NC(=O)c2cccc3c(=O)c4ccccc4[nH]c23)c1
6.2 µM

Give its IC50 value. Item: CN(C)CCNC(=O)c1cccc2c(=O)c3ccccc3[nH]c12
> 100 µM
